Cited source for all entries: paper PMC9571290

Tested on: bloodstream forms of Trypanosoma brucei brucei
Experiment: resazurin-based antitrypanosomal inhibition assay
Format: cell-based
Settings: Trypanosoma brucei, Table 4, analogs of MMV675968, solid material; read-out: IC50 ± SD T. b. b.
property: IC50 (nM)
Your answer is read as nM, so omit the unit and give the number.

The measured IC50 associated with Cc1ccccc1NCc1ccc2nc(N)nc(N)c2c1 [Analog 9] reads 190

The measured IC50 associated with COc1ccc(NCc2ccc3nc(N)nc(N)c3c2Cl)cc1OC [Analog 2] reads 2400

The measured IC50 associated with COc1ccc(NCc2ccc3nc(N)nc(N)c3c2)cc1 [Analog 8] reads 250

The measured IC50 associated with COc1cccc(CNC(=O)c2ccc3nc(N)nc(N)c3c2)c1 [Analog 14] reads 2500

The measured IC50 associated with COc1ccc(NCc2ccc3nc(N)nc(N)c3c2Cl)cc1 [Analog 4] reads 2500

The measured IC50 associated with COc1ccccc1NCc1ccc2nc(N)nc(N)c2c1Cl [Analog 3] reads 3200

The measured IC50 associated with COc1ccccc1NC(=O)c1ccc2nc(N)nc(N)c2c1 [Analog 13] reads 3200

The measured IC50 associated with COc1ccc(NCc2ccc3nc(N)nc(N)c3c2)cc1OC [Analog 6] reads 560

The measured IC50 associated with COc1ccccc1NCc1ccc2nc(N)nc(N)c2c1 [Analog 7] reads 60

The measured IC50 associated with Cc1ccccc1NCc1ccc2nc(N)nc(N)c2c1Cl [Analog 5] reads 2300

The measured IC50 associated with Nc1nc(N)c2cc(CNc3cc(Cl)ccc3Cl)ccc2n1 [Analog 10] reads 45

The measured IC50 associated with COc1ccc(NC(=O)c2ccc3nc(N)nc(N)c3c2)cc1 [Analog 11] reads 4000
